- Tested System: T1, MBP-SNX17 D467X (UniProt Q15036 1-466)
- T1 chain: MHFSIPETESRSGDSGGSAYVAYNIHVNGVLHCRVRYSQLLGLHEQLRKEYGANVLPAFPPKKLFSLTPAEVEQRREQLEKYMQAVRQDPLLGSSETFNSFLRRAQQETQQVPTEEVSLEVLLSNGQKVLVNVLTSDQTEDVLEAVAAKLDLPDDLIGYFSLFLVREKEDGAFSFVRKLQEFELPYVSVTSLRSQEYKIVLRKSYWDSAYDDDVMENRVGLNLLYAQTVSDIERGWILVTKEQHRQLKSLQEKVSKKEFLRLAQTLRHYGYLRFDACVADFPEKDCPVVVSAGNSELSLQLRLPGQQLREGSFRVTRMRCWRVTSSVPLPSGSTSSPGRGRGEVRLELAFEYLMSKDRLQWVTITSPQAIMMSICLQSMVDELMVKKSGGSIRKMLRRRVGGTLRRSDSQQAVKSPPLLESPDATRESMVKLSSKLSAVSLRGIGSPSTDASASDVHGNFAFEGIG
- Assay Protocol: FP
Where no end group is shown, it is not given here. The star is where a group is joined. 5FAM = O=C1OC2(c3ccc(O)cc3Oc3cc(O)ccc32)c2ccc(C(=O)*)cc21
Recorded Kd values for a group of binders are listed next.
The response must be a number in µM with no trailing unit.

Prompt: Look up Kd: 5FAM-MNVEIGNPTYKMYE [Peptide LRP1_(14mer)]
Completion: 8.5

Note: attention shifts to another entry.
Prompt: Look up Kd: 5FAM-KLITYDNPAYEGID [Peptide L2_(14mer)]
Completion: 3.2
